Molecular target: human TLR8 (Homo sapiens, UniProt Q9NR97)
Sequence (Q9NR97 27-1041): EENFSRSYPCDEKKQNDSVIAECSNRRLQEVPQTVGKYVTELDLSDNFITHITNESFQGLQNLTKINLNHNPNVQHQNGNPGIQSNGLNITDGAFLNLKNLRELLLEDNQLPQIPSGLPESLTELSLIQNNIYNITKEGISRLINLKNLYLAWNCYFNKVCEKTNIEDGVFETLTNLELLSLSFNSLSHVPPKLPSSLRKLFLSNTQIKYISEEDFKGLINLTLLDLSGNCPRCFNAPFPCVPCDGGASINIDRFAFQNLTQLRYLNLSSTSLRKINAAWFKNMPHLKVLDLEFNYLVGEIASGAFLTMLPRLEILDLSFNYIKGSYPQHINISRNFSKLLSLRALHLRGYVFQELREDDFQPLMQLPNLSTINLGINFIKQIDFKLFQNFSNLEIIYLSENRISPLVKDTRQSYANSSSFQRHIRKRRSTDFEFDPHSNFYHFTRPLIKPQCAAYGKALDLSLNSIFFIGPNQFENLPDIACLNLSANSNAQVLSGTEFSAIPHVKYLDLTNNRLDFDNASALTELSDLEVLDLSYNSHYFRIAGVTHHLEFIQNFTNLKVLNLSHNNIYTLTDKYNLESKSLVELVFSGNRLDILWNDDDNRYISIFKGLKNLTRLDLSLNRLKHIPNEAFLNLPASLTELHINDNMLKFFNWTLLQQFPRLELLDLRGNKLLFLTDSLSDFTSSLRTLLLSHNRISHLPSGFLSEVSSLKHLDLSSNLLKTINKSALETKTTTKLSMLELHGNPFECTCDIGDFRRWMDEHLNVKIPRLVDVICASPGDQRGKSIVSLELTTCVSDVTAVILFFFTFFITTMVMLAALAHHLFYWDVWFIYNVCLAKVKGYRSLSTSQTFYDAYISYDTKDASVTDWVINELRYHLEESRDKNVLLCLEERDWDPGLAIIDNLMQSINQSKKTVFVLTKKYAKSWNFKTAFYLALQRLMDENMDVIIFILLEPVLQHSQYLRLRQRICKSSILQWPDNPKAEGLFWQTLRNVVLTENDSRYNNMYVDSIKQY
Assay: Inhibitory effect on human TLR8 pathway (HEK-Blue hTLR8 SEAP reporter)
Settings: HEK-Blue hTLR8 cells, 6 μM resiquimod, 20 h, SEAP OD620
pIC50: −log10 of the molar value.
ENDPOINT: pIC50

{"MOLECULE": "Cc1cc(-c2[nH]c3cc4c(nc3c2C(C)C)CN(CCc2ccc(N3CCNCC3)nc2)CC4)cc(C)n1 [Example 4]", "RESULT NUMBER": 8.74}
{"MOLECULE": "Cc1c(-c2[nH]c3cc4c(nc3c2C(C)C)CNCC4)cn2ncnc2c1C [Example 9]", "RESULT NUMBER": 9.22}
{"MOLECULE": "Cc1cc(-c2[nH]c3cc4c(nc3c2C(C)C)CN(C(C)C)CC4)cc(C)n1 [Example 2]", "RESULT NUMBER": 7.52}
{"MOLECULE": "Cc1c(-c2[nH]c3cc4c(nc3c2C(C)C)CN(CC(N)=O)CC4)cn2ncnc2c1C [Example 10]", "RESULT NUMBER": 8.09}
{"MOLECULE": "Cc1cc(-c2[nH]c3cc4c(nc3c2C(C)C)CNCC4)cc(C)n1 [Example 1]", "RESULT NUMBER": 9.10}
{"MOLECULE": "Cc1cc(-c2[nH]c3cc4c(nc3c2C(C)C)CN(Cc2ccc(N3CCNCC3)cn2)CC4)cc(C)n1 [Example 5]", "RESULT NUMBER": 8.60}

a: Cc1cc(-c2[nH]c3cc4c(nc3c2C(C)C)CN(CC23CCC(N)(CC2)CC3)CC4)cc(C)n1 [Example 7]
b: Cc1cc(-c2[nH]c3cc4c(nc3c2C(C)C)CN(CC(N)=O)CC4)cc(C)n1 [Example 8]
c: Cc1cc(-c2[nH]c3cc4c(nc3c2C2CCOCC2)CNCC4)cc(C)n1 [Example 6]
Request: Please list the entries, largest pIC50 first. Submit the labels in the order that the ranking request calls for.
Result: a, c, b

###

Target: human TLR7 (Homo sapiens, UniProt Q9NYK1)
Sequence (Q9NYK1 27-1049): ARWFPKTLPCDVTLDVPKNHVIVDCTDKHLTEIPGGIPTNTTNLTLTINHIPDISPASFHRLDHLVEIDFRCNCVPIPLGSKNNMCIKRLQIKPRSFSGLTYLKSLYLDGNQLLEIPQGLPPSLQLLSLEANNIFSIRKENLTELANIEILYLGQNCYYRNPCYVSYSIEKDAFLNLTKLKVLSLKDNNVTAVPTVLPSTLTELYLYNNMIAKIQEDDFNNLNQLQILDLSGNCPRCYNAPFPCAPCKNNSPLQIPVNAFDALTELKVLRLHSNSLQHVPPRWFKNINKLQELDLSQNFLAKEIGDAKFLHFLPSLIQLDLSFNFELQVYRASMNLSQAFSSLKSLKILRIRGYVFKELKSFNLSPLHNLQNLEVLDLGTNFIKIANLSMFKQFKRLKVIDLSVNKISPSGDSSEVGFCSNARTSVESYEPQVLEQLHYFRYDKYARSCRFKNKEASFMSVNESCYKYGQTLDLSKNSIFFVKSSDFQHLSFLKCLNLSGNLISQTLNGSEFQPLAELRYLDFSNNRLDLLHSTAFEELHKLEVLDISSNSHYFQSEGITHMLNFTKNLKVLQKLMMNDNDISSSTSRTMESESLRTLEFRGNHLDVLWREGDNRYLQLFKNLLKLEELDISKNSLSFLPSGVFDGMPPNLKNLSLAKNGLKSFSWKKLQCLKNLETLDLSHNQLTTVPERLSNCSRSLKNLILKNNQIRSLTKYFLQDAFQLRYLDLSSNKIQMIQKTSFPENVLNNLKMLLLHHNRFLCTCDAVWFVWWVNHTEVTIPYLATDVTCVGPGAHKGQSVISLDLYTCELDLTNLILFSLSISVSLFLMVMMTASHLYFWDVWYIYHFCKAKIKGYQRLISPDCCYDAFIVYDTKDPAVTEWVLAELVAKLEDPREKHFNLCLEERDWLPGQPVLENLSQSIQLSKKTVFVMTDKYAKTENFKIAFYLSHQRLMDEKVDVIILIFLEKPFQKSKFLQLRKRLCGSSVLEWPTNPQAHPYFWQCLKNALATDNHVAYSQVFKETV
Assay: Inhibitory effect on human TLR7 activation pathway (HEK-Blue hTLR7 SEAP reporter)
Details: HEK-Blue hTLR7 cells, 1 μM resiquimod, 20 h, SEAP OD620
pIC50: −log10 of the molar value.
ENDPOINT: pIC50

# annotated cases, reported pIC50 shown
{"COMPOUND": "Cc1cc(-c2[nH]c3cc4c(nc3c2C(C)C)CN(CC(N)=O)CC4)cc(C)n1", "SYSTEM UNDER TEST": "human TLR7 (Homo sapiens, UniProt Q9NYK1)", "pIC50": 7.74}
{"COMPOUND": "Cc1cc(-c2[nH]c3cc4c(nc3c2C(C)C)CN(CC23CCC(N)(CC2)CC3)CC4)cc(C)n1", "SYSTEM UNDER TEST": "human TLR7 (Homo sapiens, UniProt Q9NYK1)", "pIC50": 8.15}
{"COMPOUND": "Cc1cc(-c2[nH]c3cc4c(nc3c2C(C)C)CN(Cc2ccc(N3CCNCC3)cn2)CC4)cc(C)n1", "SYSTEM UNDER TEST": "human TLR7 (Homo sapiens, UniProt Q9NYK1)", "pIC50": 8.24}
{"COMPOUND": "Cc1c(-c2[nH]c3cc4c(nc3c2C(C)C)CN(CC(N)=O)CC4)cn2ncnc2c1C", "SYSTEM UNDER TEST": "human TLR7 (Homo sapiens, UniProt Q9NYK1)", "pIC50": 7.67}
{"COMPOUND": "Cc1cc(-c2[nH]c3cc4c(nc3c2C(C)C)CN(CCc2ccc(N3CCNCC3)nc2)CC4)cc(C)n1", "SYSTEM UNDER TEST": "human TLR7 (Homo sapiens, UniProt Q9NYK1)", "pIC50": 8.17}

1: Cc1cc(-c2[nH]c3cc4c(nc3c2C(C)C)CN(C(C)C)CC4)cc(C)n1
2: Cc1cc(-c2[nH]c3cc4c(nc3c2C(C)C)CNCC4)cc(C)n1
3: Cc1cc(-c2[nH]c3cc4c(nc3c2C(C)C)CC(NC2CCOC2)CC4)cc(C)n1 (stereo not drawn)
4: Cc1c(-c2[nH]c3cc4c(nc3c2C(C)C)CNCC4)cn2ncnc2c1C
Request: Please list the entries, largest pIC50 first. Submit the labels in the order that the ranking request calls for.
Result: 4, 2, 3, 1

This collection of values is drawn from patent US20240360133A1.
